# Test system: HOP-62 NSCLC
# Protocol details: NCI-60 one-dose screen, 48 h (100 = growth as untreated, 0 = no growth, -100 = all killed)
# Test conditions: 10 µM unless noted
Compounds without any hit were thinned out: in the full panel of roughly 83,000, 20% have a hit.
Measure name: growth (%)
Number in %, nothing else.

Can you share its growth? I mean this compound: `O=C(Nc1cnc(Nc2ccc(N3CCOCC3)nc2)nc1Oc1ccc(C(F)(F)F)cc1)c1ccncc1`
93.1

Next record, please: `Cc1ccc2c(-n3nc(C#N)c(C#N)c3N)cc(=O)[nH]c2c1`
68.1

Next record, please: `N#C/C(=C\c1ccc([N+](=O)[O-])cc1)n1nnc2cc(F)c(F)cc21`
63.9

Next record, please: `CC1(C)CC[C@]2(C(=O)N[C@H](CO)Cc3ccccc3)CC[C@]3(C)C(=CC[C@@H]4[C@@]5(C)CCCNC(C)(C)[C@@H]5CC[C@]43C)[C@@H]2C1`
89

----------
# Test system: SF-295 CNS
# Protocol details: NCI-60 one-dose screen, 48 h (100 = growth as untreated, 0 = no growth, -100 = all killed)
# Test conditions: 10 µM unless noted
This is part of a sample that, as a whole, favours compounds with a hit. Of some 83,000 tested, about 20% had one in any assay. Active and inactive are the calls of the source. Rule for the calls: active = growth percent below 10; inactive = the rest.
For each record, write down the corresponding growth.

Can you share its growth? I mean this molecule: `Oc1c(CN2CCOCC2)cc(COCc2ccccc2)c2cccnc12`
30.8% (inactive)

Next record, please: `Cc1ccc2c(=O)cc(C(=O)Nc3sc4c(c3C(=O)NCc3cccnc3)CCCC4)oc2c1C`
102% (inactive)

Next record, please: `Cn1cc(-c2csc(-c3cn(CCCN4CCOCC4)c4ccccc34)n2)c2cccnc21`
79.5% (inactive)

Next record, please: `COc1ccc(N2CCN(C(=O)c3sc4nc(C)c(Br)c(C)c4c3N)CC2)cc1`
95.6% (inactive)

Next record, please: `C=C1C(=O)O[C@H]2[C@H]1CC/C(Cn1cc(CCC)nn1)=C\CC[C@@]1(C)O[C@@H]21`
71.6% (inactive)

Next record, please: `COc1ccc(C(=O)Cn2c(C(=O)c3ccc(OC)cc3)nc3ccccc32)cc1`
1.78% (active)

Next record, please: `c1ccc2c(c1)CCCc1nnc3nc4ccccc4n3c1-2`
30.7% (inactive)

Next record, please: `CCN(CC)Cc1cc(Nc2ccnc3cc(Cl)ccc23)ccc1O`
93.4% (inactive)

Next record, please: `C#CCOc1cccc(-c2ncnc3cc(NC(=O)C=C)ccc23)c1`
43.2% (inactive)

Next record, please: `CCN(CC)c1ccc(CNc2cc(C)nc3ccccc23)cc1`
50.9% (inactive)

Next record, please: `COc1ccc(N2CCC(=S)NC2=S)cc1`
101% (inactive)

Next record, please: `O=C(Nc1ncccc1OCc1ccccc1)NC1CCCCCC1`
85.4% (inactive)

Next record, please: `O=[N+]([O-])c1ccc(-c2cn3nc(-c4c[nH]c5ccccc45)sc3n2)cc1`
102% (inactive)

Next record, please: `O=C(/C=C/c1cccc(Cl)c1Cl)Nc1ncc(Cc2ccccc2Cl)s1`
21.4% (inactive)

Next record, please: COc1ccc(C2=NN(C(C)=O)C(c3cn(-c4ccccc4)nc3-c3ccc(Cl)cc3)C2)cc1 (stereo not given)
42.4% (inactive)

Next record, please: `C/C(=N\O)c1ccc(NC(=O)CSc2nnc(-c3cc(-c4ccc(S(N)(=O)=O)cc4)nc4ccccc34)n2-c2ccccc2)cc1`
92.2% (inactive)

Next record, please: C/C=C(\C)C(=O)N[C@H]1C(O)C[C@]2(C)C3CC[C@@]4(C)C(CC[C@@H]4C(C)N(C)C)C3CCC2C1O (stereo not given in full)
105% (inactive)

Next record, please: `Cc1ccc(/C=C/C(=O)c2cccc(OCCCOc3cccc(C(=O)/C=C/c4ccc(C)cc4)c3)c2)cc1`
77.4% (inactive)

Next record, please: `O=C(N/N=C\c1ccccc1S(=O)(=O)O)N/N=C/c1ccccc1S(=O)(=O)O`
101% (inactive)

Next record, please: `CCOC(=O)c1c(C)nc2ccccc2c1/C=C/c1ccccc1`
66.4% (inactive)

----------
# Test system: COLO 205 colon
# Protocol details: NCI-60 one-dose screen, 48 h
# Test conditions: 10 µM unless noted
The panel holds about 83,000 compounds, 20% with a hit somewhere; the sample as a whole holds those more often. Activity calls are given as the source filed them. The calls were made as follows: active = growth percent below 10; inactive = the rest.
Outcome field: choose from true (1) = active, false (0) = inactive

Fill in: this test's call for `Cc1ccccc1Nc1cc(O)c2c(=O)cc(-c3ccccc3)oc2c1` is ___
false (0)

Next record, please: Cc1cccc2c1C[C@@]1(C2=O)C(c2ccc(C(C)(C)C)cc2)=NOS1=O (some centres not stated)
false (0)

Next record, please: OCCNCCNC(Cc1ccc(Cl)cc1)c1ccccc1 (configuration not stated)
false (0)

Next record, please: `CCOC(=O)C(Cc1ccc(OC)cc1)C(=O)OCC`
false (0)

Next record, please: `CC1(C)OB(O)c2cc(-c3nc4ccc5[nH]ncc5c4c4c3CCCC4)ccc21`
false (0)

Next record, please: `Cc1ncc(C(=O)Nc2ccc(CN3CCN(C)CC3)c(C(F)(F)F)c2)cc1C#Cc1cnc(N)c2ncccc12`
true (1)

Next record, please: `CN1C(=O)/C(=C/c2ccc(C(=O)Nc3ncc(Cc4cccc(Cl)c4)s3)cc2)SC1=S`
false (0)

Next record, please: `COc1cc(/C=N/Nc2ccc(Br)cc2)cc(OC)c1OC`
false (0)

Next record, please: `CN(CCC(=O)c1ccccc1)CCC(=O)c1ccccc1`
false (0)

Next record, please: `Cc1ccc(CNc2ccc3nc(CCC(C)C)[nH]c3c2)cc1`
false (0)

Next record, please: CN(Cc1ccccc1)c1nc(Cl)c(C2CC(c3ccccc3)=NN2c2ccccc2)s1 (configuration not stated)
false (0)

Next record, please: `COC(=O)/C=C1/SC(=Nc2ccc([N+](=O)[O-])cc2)N(CCc2c[nH]c3ccc(O)cc23)C1=O`
false (0)

Next record, please: `Cc1ccc(CNc2c3ccccc3nc3ccccc23)cc1`
true (1)

Next record, please: Nc1nc(N)c2c(n1)NC(c1cccc(Nc3ccnc4cc(C(F)(F)F)ccc34)c1)CC(c1ccc(Br)cc1)=N2 (configuration not stated)
false (0)

Next record, please: `COc1ccc(/C=C(/c2ccccc2)[N+](=O)[O-])c(OC)c1`
true (1)

Next record, please: `COc1ccc2cc(-c3ccnc4c(N=Nc5ccc(Cl)cc5)c(N)nn34)ccc2c1`
false (0)

Next record, please: `COc1cccc(Nc2ncnc3cc(NC(=O)CCl)ccc23)c1`
true (1)

Next record, please: `CCOC(=O)c1c(C)c2c(n1Cc1ccccc1)CSCC2=O`
true (1)

Next record, please: `CC(=O)c1sc2sc(C(C)=O)c(C)c2c1C`
false (0)

Next record, please: `COc1ccc(-c2cc(-c3ccccc3)nc(N3CCN(CCNc4ccnc5cc(Cl)ccc45)CC3)n2)cc1`
true (1)

Next record, please: `O=C(N=Nc1c(O)[nH]c2ccccc12)Nc1ccc(F)cc1`
false (0)

Next record, please: `CCN(CC)CCCOc1ccc2ncnc(Nc3ccc(Oc4cccc(C(F)(F)F)c4)c(Cl)c3)c2c1`
true (1)

----------
# Tested on: PC-3 prostate
# Protocol details: NCI-60 one-dose screen, 48 h (100 = growth as untreated, 0 = no growth, -100 = all killed)
# Test conditions: 10 µM unless noted
About 83,000 compounds went through this panel and 20% of them were active in at least one assay; those are over-represented in the sample as a whole.
Measure name: growth (%)
Number in %, nothing else.

Can you share its growth? I mean this molecule: `S=c1[nH]c(=S)c2c(-c3ccccc3)c(-c3ccccc3)oc2[nH]1`
103

Next record, please: `CCN(CC)CCN1C(=O)c2cccc3c(/C=C/CN4C(=O)c5cccc6cccc(c56)C4=O)ccc(c23)C1=O`
86.6

Next record, please: `C/C(=N\O)c1ccc(NC(=O)CSc2nnc(-c3cc(-c4ccc(S(N)(=O)=O)cc4)nc4ccccc34)n2-c2ccccc2)cc1`
63.6

Next record, please: `Cc1cccc[n+]1C1c2ccccc2-c2ccccc21`
67.6

Next record, please: `Cc1ccc(/C=C(\C#N)n2nnc3cc(F)c(F)cc32)cc1`
21.3

Next record, please: `O=C(CSc1nnc(-c2cc(-c3ccccc3)nc3ccccc23)n1-c1ccccc1)Nc1ccc(C(=O)/C=C/c2ccc(Cl)cc2)cc1`
81

Next record, please: `COc1cc(-c2nc3cc(Cl)c(Cl)cc3[nH]2)ccc1OCC(=O)N=Nc1c(O)[nH]c2ccc(Cl)cc12`
0.522

Next record, please: `NC(=O)c1c(NC(=O)c2cccs2)sc2c1CCC(=O)C2`
10.5

Next record, please: `O=C(c1c[nH]c2ccccc12)c1n[nH]c(=S)n1-c1cccc(Br)c1`
87.8

Next record, please: `C=CCn1c(SCC(=O)Nc2ccc(/C(C)=N/O)cc2)nnc1-c1cc(-c2ccc(S(N)(=O)=O)cc2)nc2ccccc12`
80.2

Next record, please: `CCCCCCCCCCCCCCCCCCOc1ccccc1CC(=O)NCC[N+]1(C)CCCCC1`
8.74

Next record, please: `O=C(Nc1ccc(Br)cc1)C1=NCCCCN1`
74.4

Next record, please: N#Cc1cccc(C2C3=C(COC3=O)N(CCO)c3cc4c(cc32)CCC4)c1 (stereo not given)
22.9

Next record, please: `C/C(=N\O)[C@@H]1CC[C@]2(CO)CC[C@]3(C)[C@H](CC[C@@H]4[C@@]5(C)CCCNC(C)(C)[C@@H]5CC[C@]43C)[C@@H]12`
60.6

Next record, please: `COc1ccc(/C=C/c2c(C(=O)/C=C/c3ccccc3)c(C)nc3ccccc23)cc1`
26.9

Next record, please: N#CC1=C(N)Oc2ccc3ccccc3c2C1c1ccc([N+](=O)[O-])cc1 (stereo not given)
69.8

Next record, please: `O=C1Nc2c(C(=O)O)cccc2/C1=N/c1n[nH]c(=S)s1`
84.2

Next record, please: `CCOC(=O)c1c(C)nc2ccccc2c1/C=C/c1cccs1`
60.4

Next record, please: `CC1(C)C(N)=Nc2cc(OCCCN3Cc4ccccc4C3)c(OCC3CC3)cc21`
49.6

Next record, please: `CN1CCN(CCOc2ccc(-c3cnc4c(-c5cccc(F)c5F)cnn4c3)cc2)CC1`
90.5
